pIC50: −log10 of the molar value.
Heads up, these compounds all have pIC50 values measured for Cytochrome P450 2C8 (Homo sapiens, UniProt P10632).

| ENTRY_SMILES | pIC50 |
| --- | --- |
| C[C@@H](Oc1ccc2ncc3c(c2c1)CCOC3)c1cncc(-c2nc(Cl)c[nH]2)c1 | > 5.00 |

// switching to the query compound
Req: Identify the measured pIC50 of C[C@@H](Oc1ccc2c(=O)cc3n(c2c1)CCOC3)c1cc(-n2ccc(Cl)n2)cnn1 for Cytochrome P450 2C8 (Homo sapiens, UniProt P10632).
Resp: < 5.00

###

assay: Oral bioavailability in mouse; type: ADME, organism-based; conditions: in vivo
PROPERTY_NAME: bioavailability (%)
Note: unit % is implicit; provide only the numeric part.

Req: What measured bioavailability goes with C[C@@H](Oc1ccc2c(=O)cc3n(c2c1)CCOC3)c1cc(-n2ccc(Cl)n2)cnn1 ?
Resp: 5.2

###

The entries below are paired with their reported pIC50.
molecular target: Cytochrome P450 3A4 (Homo sapiens, UniProt P08684); assay: Inhibition of CYP3A4 (unknown origin) using testosterone as substrate; format: ADME
Sequence (P08684 whole entry): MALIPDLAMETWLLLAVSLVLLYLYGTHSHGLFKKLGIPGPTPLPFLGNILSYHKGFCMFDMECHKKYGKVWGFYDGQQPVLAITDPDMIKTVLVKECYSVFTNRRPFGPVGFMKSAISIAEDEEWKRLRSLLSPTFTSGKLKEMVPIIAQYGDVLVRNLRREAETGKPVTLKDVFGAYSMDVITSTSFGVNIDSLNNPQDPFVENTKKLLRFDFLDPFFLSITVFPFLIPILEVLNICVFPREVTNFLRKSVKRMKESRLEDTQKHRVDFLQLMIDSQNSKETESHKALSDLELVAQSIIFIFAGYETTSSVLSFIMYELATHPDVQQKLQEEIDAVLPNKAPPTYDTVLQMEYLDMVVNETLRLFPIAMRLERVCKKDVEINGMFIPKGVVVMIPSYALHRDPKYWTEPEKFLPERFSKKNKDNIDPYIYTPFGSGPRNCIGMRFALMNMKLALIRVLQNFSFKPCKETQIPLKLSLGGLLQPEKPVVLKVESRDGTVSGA
pIC50 (log units): -log10 of the concentration in mol/L.

Field: example entries. Status: answers known.
| MOLECULE | pIC50 |
| --- | --- |
| C[C@@H](Oc1ccc2c(=O)cc3n(c2c1)CCOC3)c1cncc(-c2nc(C(F)(F)F)c[nH]2)c1 | 5.37 |
| C[C@@H](Oc1ccc2ncc(CO)cc2c1)c1cncc(-c2nc(Cl)c[nH]2)c1 | 5.68 |
| CC(Oc1ccc2c(=O)cc3n(c2c1)CCOC3)c1cncc(-c2nc(Cl)c[nH]2)c1 (racemic) | 5.43 |

Now for the molecule whose pIC50 we want.
Req: For C[C@@H](Oc1cccc(-c2ccn[nH]2)c1)c1cncc(-c2nc(Cl)c[nH]2)c1 , what is its reported pIC50?
Resp: 6.49
